systemName: Hypoxia inducible factors; HIF-1-alpha, HIF-2-alpha (Homo sapiens, UniProt Q16665+Q99814)
testName: Inhibition of HIF1 in human LN229 cells after 1 hr preincubation under hypoxic condition measured after 24 hrs by luciferase reporter gene assay
Type: cell-based
assayMetric: IC50

entrysmiles=COc1ccc(S(=O)(=O)N(Cc2ccc3c(n2)C=CC(C)(C)O3)C2CCCCC2)cc1OC endpointresult="0.8 µM"
entrysmiles=COc1ccc(S(=O)(=O)N(Cc2ccc3c(n2)C=CC(C)(C)O3)C2CCCCCC2)cc1OC endpointresult="6.6 µM"
entrysmiles=COc1ccc(S(=O)(=O)N(Cc2ccc3c(c2)CC(C)(C)O3)c2ccccc2)cc1OC endpointresult="0.306 µM"
entrysmiles=COc1ccc(S(=O)(=O)N(Cc2ccc3c(c2)C=CC(C)(C)O3)C2CC2)cc1OC endpointresult="1.5 µM"
entrysmiles=CC1(C)C=Cc2nc(CN(c3ccccc3)S(=O)(=O)c3ccc(-c4ccccc4)cc3)ccc2O1 endpointresult="3.4 µM"
entrysmiles=COc1ccc(N(Cc2ccc3c(n2)C=CC(C)(C)O3)S(=O)(=O)c2ccc(OC)c(OC)c2)cc1OC endpointresult="> 25 µM"
entrysmiles=COc1ccc(S(=O)(=O)N(Cc2ccc3c(c2)CC(C)(C)O3)C(C)C)cc1OC endpointresult="1.5 µM"
entrysmiles=CC1(C)C=Cc2cc(CN(c3ccccc3)S(=O)(=O)c3ccc(Br)cc3OC(F)(F)F)ccc2O1 endpointresult="> 25 µM"
entrysmiles=COc1ccc(N(C)Cc2ccc3c(c2)C=CC(C)(C)O3)cc1OC endpointresult="5 µM"

----------
systemName: Hypoxia inducible factors; HIF-1-alpha, HIF-2-alpha (Homo sapiens, UniProt Q16665+Q99814)
testName: Inhibition of HIF1 in human LN229 cells after 1 hr preincubation under hypoxic condition measured after 24 hrs by luciferase reporter gene assay
Type: cell-based
assayMetric: IC50 (nM)

entrysmiles=COc1ccc(S(=O)(=O)N(Cc2ccc3c(c2)C=CC(C)(C)O3)C(C)C)cc1OC endpointunit=nM endpointresult=3100
entrysmiles=COc1ccc(S(=O)(=O)N(Cc2ccc3c(n2)C=CC(C)(C)O3)C2CCCC2)cc1OC endpointunit=nM endpointresult=600
entrysmiles=CC1(C)C=Cc2nc(CN(c3ccccc3)S(=O)(=O)C3CCCCC3)ccc2O1 endpointunit=nM endpointresult=400
entrysmiles=COc1ccc(S(=O)(=O)N(Cc2ccc3c(n2)C=CC(C)(C)O3)c2ccccc2)cc1OC endpointunit=nM endpointresult=1300
entrysmiles=CCCCN(Cc1ccc2c(c1)CC(C)(C)O2)S(=O)(=O)c1ccc(OC)c(OC)c1 endpointunit=nM endpointresult=478
entrysmiles=C=CCN(Cc1ccc2c(c1)C=CC(C)(C)O2)S(=O)(=O)c1ccc(OC)c(OC)c1 endpointunit=nM endpointresult=3400
entrysmiles=COc1ccc(S(=O)(=O)N(Cc2ccc3c(c2)C=CC(C)(C)O3)C2CCCCC2)cc1OC endpointunit=nM endpointresult=4000
entrysmiles=COc1ccc(S(=O)(=O)N(Cc2cnc3c(c2)C=CC(C)(C)O3)c2ccccc2)cc1OC endpointunit=nM endpointresult=2500

----------
systemName: Hypoxia inducible factors; HIF-1-alpha, HIF-2-alpha (Homo sapiens, UniProt Q16665+Q99814)
testName: Inhibition of HIF1 in human LN229 cells after 1 hr preincubation under hypoxic condition measured after 24 hrs by luciferase reporter gene assay
Format: cell-based
assayMetric: IC50 (µM)

compound=COc1ccc(S(=O)(=O)N(Cc2ccc3c(n2)C=CC(C)(C)O3)C2CCC2)cc1OC systemname="Hypoxia inducible factors; HIF-1-alpha, HIF-2-alpha (Homo sapiens, UniProt Q16665+Q99814)" readoutqualifier== endpointresult=0.28
compound=CCCCN(Cc1ccc2c(n1)C=CC(C)(C)O2)S(=O)(=O)c1ccc(OC)c(OC)c1 systemname="Hypoxia inducible factors; HIF-1-alpha, HIF-2-alpha (Homo sapiens, UniProt Q16665+Q99814)" readoutqualifier== endpointresult=0.9
compound=CC1(C)C=Cc2nc(CN(c3ccccc3)S(=O)(=O)c3ccc4c(c3)OCO4)ccc2O1 systemname="Hypoxia inducible factors; HIF-1-alpha, HIF-2-alpha (Homo sapiens, UniProt Q16665+Q99814)" readoutqualifier== endpointresult=6.5
compound=CCCCN(Cc1ccc2c(c1)C=CC(C)(C)O2)S(=O)(=O)c1ccc(OC)c(OC)c1 systemname="Hypoxia inducible factors; HIF-1-alpha, HIF-2-alpha (Homo sapiens, UniProt Q16665+Q99814)" readoutqualifier== endpointresult=3.3
compound=C#CCN(Cc1ccc2c(c1)C=CC(C)(C)O2)S(=O)(=O)c1ccc(OC)c(OC)c1 systemname="Hypoxia inducible factors; HIF-1-alpha, HIF-2-alpha (Homo sapiens, UniProt Q16665+Q99814)" readoutqualifier== endpointresult=1.3
compound=COc1ccc(S(=O)(=O)N(Cc2ccc3c(n2)C=CC(C)(C)O3)c2ccc(F)cc2)cc1OC systemname="Hypoxia inducible factors; HIF-1-alpha, HIF-2-alpha (Homo sapiens, UniProt Q16665+Q99814)" readoutqualifier== endpointresult=5.7
compound=COc1ccc(S(=O)(=O)N(Cc2ccc3c(n2)C=CC(C)(C)O3)c2ccc3c(c2)CCCC3)cc1OC systemname="Hypoxia inducible factors; HIF-1-alpha, HIF-2-alpha (Homo sapiens, UniProt Q16665+Q99814)" readoutqualifier== endpointresult=6.2
compound=CC(C)CS(=O)(=O)N(Cc1ccc2c(n1)C=CC(C)(C)O2)c1ccccc1 systemname="Hypoxia inducible factors; HIF-1-alpha, HIF-2-alpha (Homo sapiens, UniProt Q16665+Q99814)" readoutqualifier== endpointresult=0.9
compound=CC1(C)C=Cc2nc(CN(c3ccccc3)S(=O)(=O)C3CC3)ccc2O1 systemname="Hypoxia inducible factors; HIF-1-alpha, HIF-2-alpha (Homo sapiens, UniProt Q16665+Q99814)" readoutqualifier=> endpointresult=25
compound=COc1ccc(S(=O)(=O)N(Cc2ccc3c(c2)C=CC(C)(C)O3)c2ccccc2)cc1 systemname="Hypoxia inducible factors; HIF-1-alpha, HIF-2-alpha (Homo sapiens, UniProt Q16665+Q99814)" readoutqualifier== endpointresult=0.6
compound=CC(C)c1ccc(S(=O)(=O)N(Cc2cc3c(cn2)OC(C)(C)C=C3)C2CCCCC2)cc1 systemname="Hypoxia inducible factors; HIF-1-alpha, HIF-2-alpha (Homo sapiens, UniProt Q16665+Q99814)" readoutqualifier== endpointresult=5.8
compound=CC1(C)C=Cc2cc(CNc3ccc(C(=O)O)cc3)ccc2O1 systemname="Hypoxia inducible factors; HIF-1-alpha, HIF-2-alpha (Homo sapiens, UniProt Q16665+Q99814)" readoutqualifier=> endpointresult=25
compound=CC1(C)C=Cc2cc(CNc3ccccc3Br)ccc2O1 systemname="Hypoxia inducible factors; HIF-1-alpha, HIF-2-alpha (Homo sapiens, UniProt Q16665+Q99814)" readoutqualifier=> endpointresult=25
compound="CCC1(C)C=Cc2cc(CN(c3ccccc3)S(=O)(=O)c3ccc(OC)c(OC)c3)ccc2O1 (centres undefined)" systemname="Hypoxia inducible factors; HIF-1-alpha, HIF-2-alpha (Homo sapiens, UniProt Q16665+Q99814)" readoutqualifier== endpointresult=2.2
compound=COc1ccc(S(=O)(=O)N(Cc2ccc3c(c2)C=CC(C)(C)O3)C(C)(C)C)cc1OC systemname="Hypoxia inducible factors; HIF-1-alpha, HIF-2-alpha (Homo sapiens, UniProt Q16665+Q99814)" readoutqualifier== endpointresult=3.5
compound=CC1(C)C=Cc2cc(CNc3ccccc3F)ccc2O1 systemname="Hypoxia inducible factors; HIF-1-alpha, HIF-2-alpha (Homo sapiens, UniProt Q16665+Q99814)" readoutqualifier=> endpointresult=25
compound=CCCCS(=O)(=O)N(Cc1ccc2c(n1)C=CC(C)(C)O2)c1ccccc1 systemname="Hypoxia inducible factors; HIF-1-alpha, HIF-2-alpha (Homo sapiens, UniProt Q16665+Q99814)" readoutqualifier== endpointresult=5
compound=CC(C)S(=O)(=O)N(Cc1ccc2c(n1)C=CC(C)(C)O2)c1ccccc1 systemname="Hypoxia inducible factors; HIF-1-alpha, HIF-2-alpha (Homo sapiens, UniProt Q16665+Q99814)" readoutqualifier== endpointresult=13.4
compound=COc1ccc(S(=O)(=O)N(Cc2ccc3c(c2)CC(C)(C)O3)C2CCCCCC2)cc1OC systemname="Hypoxia inducible factors; HIF-1-alpha, HIF-2-alpha (Homo sapiens, UniProt Q16665+Q99814)" readoutqualifier== endpointresult=9.1
compound=CCCS(=O)(=O)N(Cc1ccc2c(n1)C=CC(C)(C)O2)c1ccccc1 systemname="Hypoxia inducible factors; HIF-1-alpha, HIF-2-alpha (Homo sapiens, UniProt Q16665+Q99814)" readoutqualifier== endpointresult=6.4
compound=COc1ccc(S(=O)(=O)N(Cc2cnc3c(c2)C=CC(C)(C)O3)C2CCCCC2)cc1OC systemname="Hypoxia inducible factors; HIF-1-alpha, HIF-2-alpha (Homo sapiens, UniProt Q16665+Q99814)" readoutqualifier=> endpointresult=25
compound=COc1ccc(S(=O)(=O)N(Cc2cnc3ccccc3c2)c2ccccc2)cc1OC systemname="Hypoxia inducible factors; HIF-1-alpha, HIF-2-alpha (Homo sapiens, UniProt Q16665+Q99814)" readoutqualifier== endpointresult=3.5
compound=CC1(C)C=Cc2cc(CNc3ccccn3)ccc2O1 systemname="Hypoxia inducible factors; HIF-1-alpha, HIF-2-alpha (Homo sapiens, UniProt Q16665+Q99814)" readoutqualifier== endpointresult=8.5
compound=COc1ccc(S(=O)(=O)N(CCC(C)C)Cc2ccc3c(c2)C=CC(C)(C)O3)cc1OC systemname="Hypoxia inducible factors; HIF-1-alpha, HIF-2-alpha (Homo sapiens, UniProt Q16665+Q99814)" readoutqualifier== endpointresult=1.6
compound=COc1ccc(S(=O)(=O)N(Cc2ccc3c(c2)C=CC(C)(C)O3)C2CCCC2)cc1OC systemname="Hypoxia inducible factors; HIF-1-alpha, HIF-2-alpha (Homo sapiens, UniProt Q16665+Q99814)" readoutqualifier== endpointresult=0.5
compound=COc1ccc(S(=O)(=O)N(Cc2cc3c(cn2)OC(C)(C)C=C3)c2ccccc2)cc1 systemname="Hypoxia inducible factors; HIF-1-alpha, HIF-2-alpha (Homo sapiens, UniProt Q16665+Q99814)" readoutqualifier== endpointresult=1.4
compound=CC1(C)C=Cc2cc(CN(c3ccccc3)S(=O)(=O)c3ccc([N+](=O)[O-])cc3)ncc2O1 systemname="Hypoxia inducible factors; HIF-1-alpha, HIF-2-alpha (Homo sapiens, UniProt Q16665+Q99814)" readoutqualifier== endpointresult=1.8
compound=COc1ccc(S(=O)(=O)N(Cc2ccc3c(n2)C=CC(C)(C)O3)C2CCCCCCC2)cc1OC systemname="Hypoxia inducible factors; HIF-1-alpha, HIF-2-alpha (Homo sapiens, UniProt Q16665+Q99814)" readoutqualifier== endpointresult=0.7
compound=CC1(C)C=Cc2nc(CN(c3ccccc3)S(=O)(=O)c3ccc4c(c3)OCCO4)ccc2O1 systemname="Hypoxia inducible factors; HIF-1-alpha, HIF-2-alpha (Homo sapiens, UniProt Q16665+Q99814)" readoutqualifier== endpointresult=0.9
compound=Cc1ccc(N(C)Cc2ccc3c(c2)C=CC(C)(C)O3)c(C)c1 systemname="Hypoxia inducible factors; HIF-1-alpha, HIF-2-alpha (Homo sapiens, UniProt Q16665+Q99814)" readoutqualifier== endpointresult=2.6
compound=CC1(C)C=Cc2cc(CN(c3ccccc3)S(=O)(=O)c3cc(Cl)ccc3Cl)ccc2O1 systemname="Hypoxia inducible factors; HIF-1-alpha, HIF-2-alpha (Homo sapiens, UniProt Q16665+Q99814)" readoutqualifier== endpointresult=2.1
compound=COc1ccc(NCc2ccc3c(c2)C=CC(C)(C)O3)cc1OC systemname="Hypoxia inducible factors; HIF-1-alpha, HIF-2-alpha (Homo sapiens, UniProt Q16665+Q99814)" readoutqualifier== endpointresult=3
compound=COc1ccc(S(=O)(=O)N(Cc2ccc3c(c2)CC(C)(C)O3)C2CCCCC2)cc1OC systemname="Hypoxia inducible factors; HIF-1-alpha, HIF-2-alpha (Homo sapiens, UniProt Q16665+Q99814)" readoutqualifier== endpointresult=8.2
compound=CN(Cc1ccc2c(c1)C=CC(C)(C)O2)c1ccccn1 systemname="Hypoxia inducible factors; HIF-1-alpha, HIF-2-alpha (Homo sapiens, UniProt Q16665+Q99814)" readoutqualifier== endpointresult=8.4
compound=Cc1cc(C)cc(S(=O)(=O)N(Cc2ccc3c(c2)C=CC(C)(C)O3)c2ccccc2)c1 systemname="Hypoxia inducible factors; HIF-1-alpha, HIF-2-alpha (Homo sapiens, UniProt Q16665+Q99814)" readoutqualifier== endpointresult=0.5
compound=CC1(C)C=Cc2nc(CN(c3ccccc3)S(=O)(=O)c3cccc4cccnc34)ccc2O1 systemname="Hypoxia inducible factors; HIF-1-alpha, HIF-2-alpha (Homo sapiens, UniProt Q16665+Q99814)" readoutqualifier== endpointresult=0.9
compound=COc1ccc(S(=O)(=O)N(Cc2ccc3c(c2)CC(C)(C)O3)C2CCCC2)cc1OC systemname="Hypoxia inducible factors; HIF-1-alpha, HIF-2-alpha (Homo sapiens, UniProt Q16665+Q99814)" readoutqualifier== endpointresult=0.378
compound=COc1ccc(S(=O)(=O)N(Cc2cc3c(cn2)OC(C)(C)C=C3)C2CCCCC2)cc1OC systemname="Hypoxia inducible factors; HIF-1-alpha, HIF-2-alpha (Homo sapiens, UniProt Q16665+Q99814)" readoutqualifier== endpointresult=1.1
compound=Cc1ccc(NCc2ccc3c(c2)C=CC(C)(C)O3)c(C)c1 systemname="Hypoxia inducible factors; HIF-1-alpha, HIF-2-alpha (Homo sapiens, UniProt Q16665+Q99814)" readoutqualifier=> endpointresult=25
